Could you please report measured inhibition at 1 µM for the items listed next?
MEASUREMENT TARGET: wild type androgen receptor (AR) (Homo sapiens, UniProt P10275)
Sequence (P10275 whole entry): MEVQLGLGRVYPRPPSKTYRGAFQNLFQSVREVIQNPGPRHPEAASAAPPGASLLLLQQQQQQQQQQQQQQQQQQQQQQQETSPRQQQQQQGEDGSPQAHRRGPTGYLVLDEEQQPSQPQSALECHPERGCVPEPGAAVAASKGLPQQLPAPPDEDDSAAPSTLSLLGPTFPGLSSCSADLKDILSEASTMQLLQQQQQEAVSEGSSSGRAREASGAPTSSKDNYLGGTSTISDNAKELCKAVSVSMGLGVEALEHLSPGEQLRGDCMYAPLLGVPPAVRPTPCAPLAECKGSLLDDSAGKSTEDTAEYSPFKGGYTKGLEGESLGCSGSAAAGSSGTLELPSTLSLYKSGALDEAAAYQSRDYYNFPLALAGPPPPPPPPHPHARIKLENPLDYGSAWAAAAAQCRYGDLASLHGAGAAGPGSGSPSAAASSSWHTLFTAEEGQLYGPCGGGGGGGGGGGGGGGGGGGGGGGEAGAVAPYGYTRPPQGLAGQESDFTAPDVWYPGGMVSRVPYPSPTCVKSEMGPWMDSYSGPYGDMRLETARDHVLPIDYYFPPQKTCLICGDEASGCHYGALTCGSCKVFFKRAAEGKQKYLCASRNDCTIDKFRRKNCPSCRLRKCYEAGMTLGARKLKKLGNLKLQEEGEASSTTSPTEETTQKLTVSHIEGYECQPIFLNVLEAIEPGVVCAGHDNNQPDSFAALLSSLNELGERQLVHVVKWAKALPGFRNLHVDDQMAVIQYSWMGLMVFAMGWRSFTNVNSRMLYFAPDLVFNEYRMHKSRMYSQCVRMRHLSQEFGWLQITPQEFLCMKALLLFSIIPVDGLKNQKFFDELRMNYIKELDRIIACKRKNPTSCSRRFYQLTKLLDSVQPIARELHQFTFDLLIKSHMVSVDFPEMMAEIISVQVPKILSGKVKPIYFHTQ
TEST NAME: AR-binding inhibition test (wild type), radio-labeled Mibolerone displacement
STATED CONDITIONS: read-out: inhibition rate, wild type
Quick reminder: number only, in %, skip the unit.

Sample Cc1nn(-c2ccc(C#N)c(Cl)c2)c(C)c1Cc1ccc(C(=O)N2CCC(O)CC2)cc1 ; inhibition at 1 µM observed: 47

Reported inhibition at 1 µM of Cc1nn(-c2ccc(C#N)c(Cl)c2)c(C)c1Cc1ccc(-c2nnc(C(N)=O)o2)cc1 : 87

inhibition at 1 µM measured on Cc1nn(-c2ccc(C#N)c(Cl)c2)c(C)c1Cc1ccc(C(=O)N(C)CCO)cc1 = 52

# inhibition at 1 µM (molecule: Cc1nn(-c2ccc(C#N)c(Cl)c2)c(C)c1Cc1ccc(C(=O)N2CC(O)C2)cc1 ) is 73

Value of inhibition at 1 µM reported for the molecule Cc1nn(-c2ccc(C#N)c(Cl)c2)c(C)c1Cc1ccc(C(=O)NCC(O)CO)cc1 (racemic) is 78

Short answer for Cc1nn(-c2ccc(C#N)c(Cl)c2)c(C)c1Cc1ccc(C(=O)N2CC[C@H](O)C2)cc1 : inhibition at 1 µM was 72
